meta.source: the supplement of paper PMC10567573

Items are presented alongside their recorded protein stability index.
B1: ZNF263 (parent)
chain: LLRHQRIHTGERPYKCPECGKSFS

variants of: B1; assay: protein stability index of a GFP-peptide fusion (GPS, HEK-293T) (PSI 1-6); higher = more stable; conditions: c terminus: a fixed tail appended;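 further: lentivirally expressed fusions sorted by FACS into six bins by GFP to DsRed ratio, PSI derived from sequencing read proportions per bin multiplied by bin number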

Consider the following illustrative entries.
E11S ... 2.34
S22E ... 1.88
S24V ... 2.62

Determine its reported protein stability index: R6H 3.73

Determine its reported protein stability index: Y14P 2.09

Determine its reported protein stability index: T9V 2.34

Determine its reported protein stability index: L1T 2.9

Determine its reported protein stability index: K15P 1.74
